Test system: SR
Experiment: NCI tumour cell line growth inhibition, 48 h
The source made the active and inactive calls. Cut-off read from the data, not from the text of the source: active = GI50 up to about 1.1 µM and inactive = higher.
// one of 1 (yes) = active, 0 (no) = inactive, no free text

{"columns": ["compound", "group.label"],
 "data": [
  ["S=C1CSc2c(cnc3ccccc23)N1", "0 (no)"],
  ["Cc1ccc(S(=O)(=O)OCC23CCC(C4CC42)C2CC23)cc1 (stereo not given)", "0 (no)"],
  ["COc1ccc(OC)c2c(C(=O)O)c(Cc3ccccc3)ccc12", "0 (no)"],
  ["CN(C)c1ccc(C2ON=C(c3ccccc3)N2C23CC4CC(CC(C4)C2)C3)cc1 (stereo not given)", "0 (no)"],
  ["CN(c1c(Cl)cccc1Cl)S(=O)(=O)c1ccccc1[N+](=O)[O-]", "0 (no)"]
]}

Any idea what this test logged for Nc1ccc(I)cn1 ?
0 (no)

Field entry: S=C(Nc1ccc2c(c1)oc1ccccc12)c1cccs1
0 (no)

Field entry: NC(=O)/N=C1\NC(Cc2ccccc2)C(=O)N1Cc1ccccc1 (stereo not given)
0 (no)

Field entry: CC(=O)Oc1c2c(c(CC=C(C)C)c3c1C(=O)C1=C[C@@H]4CC5C(C)(C)OC(C/C=C(/C)C(=O)O)(C4=O)[C@@]15O3)OC(C)(CCC=C(C)C)C=C2 (stereo not given in full)
1 (yes)

Field entry: N=C(N)c1ccc(/N=N/c2c(O)ccc3cc(O)ccc23)cc1
0 (no)

* * *

System: SK-MEL-5
Assay: NCI tumour cell line growth inhibition, 48 h
Active and inactive are the calls of the source. No stated cut-off is given here; in the data, active = GI50 up to about 1.1 µM and inactive = higher.
// one of active, inactive, no free text

Reference set, count: 10
{"columns": ["molecule", "group.label"],
 "data": [
  ["N#C/C=C\\c1ccc(-c2cc(C(F)(F)F)cc(C(F)(F)F)c2)o1", "inactive"],
  ["O=S(=O)(SCc1ccccc1)C(c1ccccc1)c1ccccc1", "inactive"],
  ["CCC(C)C1=C(O)[N+]2([O-])Oc3ccc(-c4c(O)c(O)c(-c5ccc(O)cc5)c(OC(C)=O)c4OC(C)=O)cc3OC2(C(C)CC)C(=O)N1O (stereo unspecified)", "inactive"],
  ["CC(C)N1CN(c2ccccc2)C2(CCN(CCCC(=O)c3ccc(F)cc3)CC2)C1=O", "inactive"],
  ["COc1ccc(/C=C2\\CCC(C)c3c2nc(N)c(C#N)c3-c2ccc(OC)c(OC)c2)cc1OC (stereo unspecified)", "inactive"],
  ["O1C2C1C1OC1C1OC1C1OC21 (stereo unspecified)", "inactive"],
  ["CC(=O)Nc1ccc(C(=O)NN2C(=O)C(Cl)C2/C=C/c2ccccc2)cc1 (stereo unspecified)", "inactive"],
  ["CN1C(c2ccccc2)CC(=O)C(N)C1c1ccccc1 (stereo unspecified)", "inactive"],
  ["O=C(/C=C/c1cccc(Oc2ccccc2)c1)NCc1ccc(C(=O)NCc2ccccc2)cc1", "inactive"],
  ["CCOC(=O)COc1c(OC)cc(C2C3=C(COC3=O)Oc3cc4c(cc32)OCO4)cc1OC (stereo unspecified)", "active"]
]}

Any idea what this test logged for CC(=O)/C=C/c1c[nH]c(=O)[nH]c1=O ?
inactive

Field entry: CC(=O)Nc1ccc(/C=c2\sc3nnc(CCC(=O)Nc4ccccc4Cl)n3c2=O)cc1
inactive

Field entry: COc1cc2c(Cc3cc(OCc4ccccc4)ccc3N)nccc2c(OC)c1OC
inactive

Field entry: O=C(O)C(CS)Nc1c2ccccc2[n+]([O-])c2ccccc12 (stereo unspecified)
inactive

Field entry: CCN(CC)C(=S)SS(=O)(=O)c1ccccc1C(=O)O
inactive

Field entry: COc1cc(Nc2nc3cc(C(F)(F)F)ccc3nc2-c2ccccc2)cc(OC)c1OC
inactive

Field entry: COC1(OC)c2no[n+]([O-])c2C(OC)(OC)c2c1no[n+]2[O-]
inactive

Field entry: O=S(O)CCCCSSCc1ccccc1CSSCCCCS(=O)O
inactive

Field entry: Cc1c(O)nc(/C=C/C(=O)O)nc1C(=O)O
inactive

Field entry: CCCCCC(=O)NC(=S)Nc1nnn[nH]1
inactive

Field entry: CC(C)(C)OC/C=C1\C(=O)O[C@H]2C[C@@H](O[Si](C)(C)C(C)(C)C)C[C@@H]12
inactive

* * *

System: PC-3
Test: NCI tumour cell line growth inhibition, 48 h
Active and inactive are the calls of the source. No stated cut-off is given here; in the data, active = GI50 up to about 1.1 µM and inactive = higher. Residues, ends and D or L forms follow the SMILES beside them. *: point of attachment. Boc = CC(C)(C)OC(=O)*
parameter: GI50

{"columns": ["compound", "GI50"],
 "data": [
  ["CCOC(=O)c1c(SCCCN2CCCCC2)n(-c2ccccc2)c(=S)n(-c2ccccc2)c1=O", "16.4 µM (inactive)"]
]}

Would you mind telling me what GI50 value was observed for N=C(/C=C/c1ccc(-c2cn3cc(/C=C/C(=N)N4CCOCC4)ccc3n2)cc1)N1CCOCC1 ?
> 100 µM (inactive)

Field entry: FC(F)(F)c1ccc2c(c1)nc(Cc1ccccc1)n2C[C@@H]1CCCN2CCCCC12 (some centres not stated)
14.3 µM (inactive)

Field entry: O=C1c2ccccc2C(=O)c2c(Nc3ccc4c5c(cccc35)C(=O)c3ccccc3-4)cccc21
> 100 µM (inactive)

Field entry: COC(=O)C(Cc1c[nH]c2ccccc12)NC(=O)C(Cc1c[nH]c2ccccc12)NC(=O)C(Cc1c[nH]c2ccccc12)NC(=O)C(Cc1c[nH]c2ccccc12)NC(=O)C(Cc1c[nH]c2ccccc12)NC(=O)C(Cc1c[nH]c2ccccc12)NC(=O)OC(C)(C)C (configuration not stated) (Boc-WWWWWW-OMe; configuration not given here)
52.5 µM (inactive)

Field entry: OB(O)c1ccccc1C#Cc1ccccc1B(O)O
22.1 µM (inactive)

Field entry: Cc1cc(C)c2c(c1)C(=O)/C(=C/c1ccccc1C(=O)O)C2
43.2 µM (inactive)

* * *

Test system: LOX IMVI
Test: NCI tumour cell line growth inhibition, 48 h
The source made the active and inactive calls. Rule as the data show it: active = GI50 up to about 1.1 µM and inactive = higher.
GI50 for assorted compounds

Here is how some compounds turned out for GI50.
{"columns": ["compound", "assay.result"],
 "data": [
  ["O=C(CC/C(CC(=O)c1ccc(Br)cc1)=N\\O)Nc1ccc(Cl)c(Cl)c1", "> 100 µM (inactive)"],
  ["Cc1cc2ccccc2c[n+]1CC(=O)CC([O-])(C(F)(F)F)C(F)(F)F", "> 100 µM (inactive)"],
  ["O=C(Nc1ccn(C2CC(I)C(COC(c3ccccc3)(c3ccccc3)c3ccccc3)O2)c(=O)n1)c1ccccc1 (stereo not drawn)", "8.18 µM (inactive)"],
  ["Cc1cc(NS(=O)(=O)c2ccc(Nc3c4ccccc4nc4c(C(=O)N5CCN(CCO)CC5)cccc34)cc2)no1", "39.5 µM (inactive)"],
  ["CS(=O)(=O)c1nc(N)nc2nc[nH]c12", "> 100 µM (inactive)"]
]}

Would you mind telling me what GI50 value was observed for COc1cc(N(CCC#N)CCC#N)ccc1C(/N=N/c1cccc([N+](=O)[O-])c1)=N\NC(=O)c1ccc(C)cc1 ?
> 100 µM (inactive)

Field entry: N#Cc1cc([N+](=O)[O-])ccc1NC(=O)C(=O)Nc1n[nH]c(N)n1
> 100 µM (inactive)

Field entry: C=C1C[C@@H]2O[C@H]3[C@H]4[C@@H](C[C@@H](C)[C@@H](OC(C)=O)[C@H]42)[C@@H](C)CO[C@@]3(C)[C@H](OC(=O)CCCCCCC)C[C@H]1O
13.2 µM (inactive)

Field entry: O=[N+]([O-])c1cc([N+](=O)[O-])c(/C=C/c2ccc(Cl)c(Cl)c2)cc1/C=C/c1ccc(Cl)c(Cl)c1
23.7 µM (inactive)

Field entry: O=[N+]([O-])c1ccc2c(c1)nc(Cc1ccccc1)n2C[C@@H]1CCCN2CCCCC12 (stereo partly drawn)
20.4 µM (inactive)

Field entry: O=C(O)C(CS)Nc1c2ccccc2[n+]([O-])c2ccccc12 (stereo not drawn)
> 100 µM (inactive)

Field entry: Cc1ccc(NC(=O)C(=O)Cc2nc3ccccc3o2)c(C)c1
> 100 µM (inactive)

Field entry: COc1ccc2nc3cc(Cl)ccc3c(Sc3ccccc3[N+](=O)[O-])c2c1
> 100 µM (inactive)

* * *

System: EKVX
Experiment: NCI tumour cell line growth inhibition, 48 h
Active and inactive are the calls of the source. Cut-off read from the data, not from the text of the source: active = GI50 up to about 1.1 µM and inactive = higher.
// one of active, inactive, no free text

Reference set, count: 8
{"columns": ["compound", "group.label"],
 "data": [
  ["CN(C)Cc1cc(/N=N/c2ccc(Cl)cc2)ccc1O", "inactive"],
  ["CC(C)(C)OC(=O)NC(CSCc1ccc(C(=O)c2ccccc2)cc1)C(=O)N1CCN(CCCCN2c3ccccc3Sc3cc(N=[N+]=[N-])ccc32)CC1 (centres undefined)", "inactive"],
  ["O=C(O)C(Sc1ccc(Cl)cc1)Sc1ccc(Cl)cc1", "inactive"],
  ["COc1cc2c(cc1OC)C(=O)/C(=C/c1ccccc1)C2", "inactive"],
  ["OC1NC2Nc3ccccc3NC2NC1O (centres undefined)", "inactive"],
  ["OC(c1ccccc1)(c1ccccc1)c1ccncc1", "inactive"],
  ["O=[N+]([O-])c1ccc(-c2cc(O)c3nc4ccccc4n3c2)cc1", "inactive"],
  ["CN1C(c2ccccc2)CC(=O)C(N)C1c1ccccc1 (centres undefined)", "inactive"]
]}

Any idea what this test logged for COc1ccc(-c2cc(-c3ccccc3)c(C#N)c(=O)n2C2OC(CO)C(O)C(O)C2O)cc1 (centres undefined) ?
inactive

Field entry: NC(=O)CCSC(CC(=O)c1ccc(Cl)cc1)c1ccc(Cl)cc1 (centres undefined)
inactive

Field entry: O=c1[nH]cc(-c2c[nH]c3ccccc23)nc1-c1c[nH]c2ccccc12
inactive

Field entry: COc1cc2c[n+](C)c3c4cc(OC)c(OC)cc4c(OCc4ccccc4)cc3c2cc1OC
inactive

Field entry: CCCC(=O)c1c(NOC2OCC(OC(C)=O)C(OC(C)=O)C2OC(C)=O)nc(OC)n(C)c1=O (centres undefined)
inactive

Field entry: Cc1cc(NS(=O)(=O)c2ccc(Nc3c4ccccc4nc4c(C(=O)N5CCN(CCO)CC5)cccc34)cc2)no1
inactive

Field entry: Cc1cc(S(=O)(=O)NC2=Nc3ccccc3C(c3ccccc3)N2)c(S)cc1Cl (centres undefined)
inactive

Field entry: O=S(=O)(c1ccccc1)c1ccc(-c2nc(-c3ccc4c(c3)Sc3ccccc3S4)cs2)cc1
inactive

Field entry: CC(=O)O[C@H]1CCC2[C@@H]3CCC4=C(O)c5nocc5C[C@]4(C)C3CC[C@@]21C (some centres undefined)
inactive

Field entry: CCN(CC)C(=S)SS(=O)(=O)c1ccccc1C(=O)O
inactive

Field entry: CCOC(=O)CSc1nc(N)c2c(-c3ccccc3)c3c(nc2n1)CCCC3
inactive

Field entry: C[C@]12C[C@H](O)[C@H]3[C@@H](CCC4=CC(=O)CC[C@@]43C)[C@@H]1CC[C@@H]2c1csc(-c2ccccc2)n1
inactive

Field entry: C1=Cc2nc1c(-c1ccncc1)c1ccc([n-]1)c(-c1ccncc1)c1nc(c(-c3ccncc3)c3ccc([n-]3)c2-c2ccncc2)C=C1.[Zn+2]
inactive

Field entry: CCN(CC)CCOc1ccc(/C=C(\C#N)c2ccc(OCCN(CC)CC)cc2)cc1
inactive

Field entry: CCCCN(CC)CC(C(C)=O)c1c(O)c2ccccc2oc1=O (centres undefined)
inactive
